FYI, the data here is from patent US11021486B2.

- measurement_target: activated MEK1 (Homo sapiens)
- Sequence (Q02750 whole entry): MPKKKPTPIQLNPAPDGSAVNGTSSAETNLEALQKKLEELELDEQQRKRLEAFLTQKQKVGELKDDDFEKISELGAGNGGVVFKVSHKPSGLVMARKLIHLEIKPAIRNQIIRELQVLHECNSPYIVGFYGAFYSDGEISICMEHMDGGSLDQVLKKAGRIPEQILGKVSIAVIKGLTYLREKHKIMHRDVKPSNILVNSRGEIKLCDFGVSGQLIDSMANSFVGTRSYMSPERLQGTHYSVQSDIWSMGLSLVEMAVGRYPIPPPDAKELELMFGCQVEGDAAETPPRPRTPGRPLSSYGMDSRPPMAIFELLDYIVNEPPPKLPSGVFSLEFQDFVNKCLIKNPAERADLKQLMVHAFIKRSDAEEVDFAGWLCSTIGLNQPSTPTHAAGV
- procedure_text: MEK Lance Ultra experiment
- test_settings: 0.07 nM activated MEK1, 2 nM non-activated ERK, 50 μM ATP; read-out: MEK potency IC50
measured_parameter: IC50 (nM)

For CNC(=O)Nc1cccc(-c2c(C)n(C3CC3)c(=O)c3c(Nc4ccc(I)cc4F)c(C)c(=O)oc23)c1 [WX099] , what is its reported IC50? 49.1

What value of IC50 has been recorded for this entry: CCS(=O)(=O)Nc1cccc(-c2c(C)n(C3CC3)c(=O)c3c(Nc4ccc(I)cc4F)c(C)c(=O)oc23)c1 [WX082] 97.4

Please give the measured IC50 for this molecule: COCCn1c(C)c(-c2cccc(NC(C)=O)c2)c2oc(=O)c(C)c(Nc3ccc(I)cc3F)c2c1=O [WX061] 57.5

P: Cc1c(Nc2ccc(I)cc2F)c2c(=O)n(C3CC3)c(C)c(-c3cccc(NS(=O)(=O)C(C)(C)C)c3)c2oc1=O [WX095]
Q: Cc1c(Nc2ccc(I)cc2F)c2c(=O)n(CC(O)CO)c(C)cc2oc1=O (stereo not drawn) [WX053]
R: CNCc1cccc(-c2c(C)n(C3CC3)c(=O)c3c(Nc4ccc(I)cc4F)c(C)c(=O)oc23)c1 [WX097]
Which order do these items take when sorted by rising IC50? List them. Please express your ranking as an ordered list of the labels. R, P, Q
(R: 29.5 nM, P: 48.6 nM, Q: 92.8 nM)

----------
- Test system: A375 cells
- procedure_text: Cell viability experiment (Cell Titer-Glo), A375
- Assay type: cell-based
- test_settings: Homo sapiens, A-375, 72 h, A375 cells, 3 days incubation; read-out: A375 IC50
measured_parameter: IC50 (nM)

Sample records with IC50:
Param readout= IC50; system= A375 cells; entry= CNC(=O)Nc1cccc(-c2c(C)n(C3CC3)c(=O)c3c(Nc4ccc(I)cc4F)c(C)c(=O)oc23)c1 ; returns value. 4.72

Missing value: IC50, A375 cells, entry Cc1c(Nc2ccc(I)cc2F)c2c(=O)n(C3CC3)c(C)c(-c3cccc(C[S+](C)[O-])c3)c2oc1=O (centres unmarked) [WX068] . Fill in? 3.66

Provide the documented IC50 with A375 cells as the system for CNCc1cccc(-c2c(C)n(C3CC3)c(=O)c3c(Nc4ccc(I)cc4F)c(C)c(=O)oc23)c1 17.2

Provide the documented IC50 with A375 cells as the system for Cc1ccccc1-c1c(C)n(C2CC2)c(=O)c2c(Nc3ccc(I)cc3F)c(C)c(=O)oc12 3.56

Query for A375 cells: what IC50 does the record show for CC(=O)Nc1cccc(-c2c(C)n(C3CCOCC3)c(=O)c3c(Nc4ccc(I)cc4F)c(C)c(=O)oc23)c1 ? 1650

I'm curious: which IC50 was measured for COCCCn1c(C)c(-c2cccc(NC(C)=O)c2)c2oc(=O)c(C)c(Nc3ccc(I)cc3F)c2c1=O tested on A375 cells? 631

Param readout= IC50; system= A375 cells; entry= CNCCn1c(C)c(-c2cccc(NC(C)=O)c2)c2oc(=O)c(C)c(Nc3ccc(I)cc3F)c2c1=O ; returns value. 484

I'm curious: which IC50 was measured for Cc1c(Nc2ccc(I)cc2F)c2c(=O)n(C3CC3)c(C)c(-c3cccc(NCCO)c3)c2oc1=O tested on A375 cells? 8.8

Record lookup: for A375 cells, what IC50 belongs to Cc1c(Nc2ccc(I)cc2F)c2c(=O)n(C3CC3)c(C)c(-c3cccc(NC(=O)N4CCOCC4)c3)c2oc1=O ? 4.65

# query: IC50 | item COCCn1c(C)c(-c2cccc(NC(C)=O)c2)c2oc(=O)c(C)c(Nc3ccc(I)cc3F)c2c1=O | system: A375 cells 442

P: Cc1c(Nc2ccc(I)cc2F)c2c(=O)n(C3CC3)c(C)c(-c3cccc(CS(=O)(=O)CCO)c3)c2oc1=O
Q: CC(=O)NCc1cccc(-c2c(C)n(C3CC3)c(=O)c3c(Nc4ccc(I)cc4F)c(C)c(=O)oc23)c1
Endpoint returns the identifier whose IC50 is numerically larger, either P or Q . Answer by stating the label of the chosen item. Q
(Q: 6.63 nM, P: 2.11 nM)

P: Cc1c(Nc2ccc(I)cc2F)c2c(=O)n(C3CC3)c(C)c(-c3cccc(N[S+]([O-])C(C)(C)C)c3)c2oc1=O (centres unmarked)
Q: Cc1c(Nc2ccc(I)cc2F)c2c(=O)n(C3CC3)c(C)c(Cc3cccc(N)c3)c2oc1=O
R: COC(=O)Nc1cccc(-c2c(C)n(C3CC3)c(=O)c3c(Nc4ccc(I)cc4F)c(C)c(=O)oc23)c1
S: CC(=O)Nc1ccc(C)c(-c2c(C)n(C3CC3)c(=O)c3c(Nc4ccc(I)cc4F)c(C)c(=O)oc23)c1
Put these in order: smallest IC50 first, largest last. Response field: labels, in requested order. Q, R, P, S
(Q: 1.76 nM, R: 5.47 nM, P: 10.1 nM, S: 33.6 nM)

a: CC(=O)Nc1cncc(-c2c(C)n(C3CC3)c(=O)c3c(Nc4ccc(I)cc4F)c(C)c(=O)oc23)n1
b: Cc1c(CS(C)(=O)=O)cccc1-c1c(C)n(C)c(=O)c2c(Nc3ccc(I)cc3F)c(C)c(=O)oc12
# query: argmin of IC50 over a and b Answer by quoting the chosen item's label. a
